biological target: NAD-dependent protein deacylase sirtuin-6 (Homo sapiens, UniProt Q8N6T7); experiment: Activation of N-terminal his-tagged human SIRT6 expressed in Escherichia coli M15 [pREP4] assessed as increase in peptide demyristoylation at 20 uM incubated for 120 mins using Ac-EALPKK(Myr)-AMC substrate by FDL assay relative to control
Sequence (Q8N6T7 whole entry): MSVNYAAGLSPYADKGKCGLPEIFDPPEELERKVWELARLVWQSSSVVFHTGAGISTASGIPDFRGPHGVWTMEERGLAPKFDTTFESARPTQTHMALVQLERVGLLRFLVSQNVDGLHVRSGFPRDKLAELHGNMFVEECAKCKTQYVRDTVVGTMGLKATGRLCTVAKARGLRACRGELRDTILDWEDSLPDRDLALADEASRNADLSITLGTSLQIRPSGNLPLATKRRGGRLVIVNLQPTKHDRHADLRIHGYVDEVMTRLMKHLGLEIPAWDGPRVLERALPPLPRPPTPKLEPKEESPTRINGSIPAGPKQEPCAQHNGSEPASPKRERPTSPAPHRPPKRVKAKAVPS
VALUE KIND: Activity (%)

>  <COMPOUND SMILES>
COc1ccc(-c2cc(C(=O)Nc3sc(C)c(C)c3C#N)c3ccccc3n2)cc1OC

>  <TARGET ENTITY>
NAD-dependent protein deacylase sirtuin-6 (Homo sapiens, UniProt Q8N6T7)

>  <Activity / %>
95.1

$$$$
>  <COMPOUND SMILES>
COc1cc([N+](=O)[O-])ccc1NC(=O)c1cc(-c2ccc(OC)c(OC)c2)nc2ccccc12

>  <TARGET ENTITY>
NAD-dependent protein deacylase sirtuin-6 (Homo sapiens, UniProt Q8N6T7)

>  <Activity / %>
101

$$$$
>  <COMPOUND SMILES>
COc1ccc(-c2cc(C(=O)Nc3ccc(F)c([N+](=O)[O-])c3)c3ccccc3n2)cc1OC

>  <TARGET ENTITY>
NAD-dependent protein deacylase sirtuin-6 (Homo sapiens, UniProt Q8N6T7)

>  <Activity / %>
96.9

$$$$
>  <COMPOUND SMILES>
O=C(Nc1cc(C(F)(F)F)ccc1Cl)c1cc(-c2cccs2)nc2ccccc12

>  <TARGET ENTITY>
NAD-dependent protein deacylase sirtuin-6 (Homo sapiens, UniProt Q8N6T7)

>  <Activity / %>
130

$$$$
>  <COMPOUND SMILES>
O=C(Nc1ccc(Cl)c(Cl)c1)c1cc(-c2cc3ccccc3o2)nc2ccccc12

>  <TARGET ENTITY>
NAD-dependent protein deacylase sirtuin-6 (Homo sapiens, UniProt Q8N6T7)

>  <Activity / %>
109

$$$$
>  <COMPOUND SMILES>
COc1ccc(-c2cc(C(=O)Nc3cc([N+](=O)[O-])ccc3Cl)c3ccccc3n2)cc1OC

>  <TARGET ENTITY>
NAD-dependent protein deacylase sirtuin-6 (Homo sapiens, UniProt Q8N6T7)

>  <Activity / %>
98.2

$$$$
>  <COMPOUND SMILES>
COc1ccc(-c2cc(C(=O)Nc3ccc(F)c(F)c3)c3ccccc3n2)cc1OC

>  <TARGET ENTITY>
NAD-dependent protein deacylase sirtuin-6 (Homo sapiens, UniProt Q8N6T7)

>  <Activity / %>
101

$$$$

A. COc1ccc(-c2cc(C(=O)Nc3ccc(C)cc3)c3ccccc3n2)cc1OC
B. COc1ccc(-c2cc(C(=O)NCc3ccc(C)cc3)c3ccccc3n2)cc1OC
Please tell me which of the two, A or B , has the higher reported Activity value. # respond with the chosen item's label
B
(B: 225%, A: 98.3%)

----------
target: UniProt:Q8N6T7; assay: Activation of N-terminal his-tagged human SIRT6 expressed in Escherichia coli M15 [pREP4] assessed as increase in peptide demyristoylation at 20 uM incubated for 120 mins using Ac-EALPKK(Myr)-AMC substrate by FDL assay relative to control
VALUE KIND: Activity (%)

A selection of reference data follows.
>  <COMPOUND SMILES>
COc1ccc(-c2cc(C(=O)Nc3ccc(C(C)(C)C)cc3)c3ccccc3n2)cc1OC

>  <TARGET ENTITY>
UniProt:Q8N6T7

>  <Activity / %>
124

$$$$
>  <COMPOUND SMILES>
COc1ccc(-c2cc(C(=O)NC3CCCC3)c3ccccc3n2)cc1OC

>  <TARGET ENTITY>
UniProt:Q8N6T7

>  <Activity / %>
124

$$$$
>  <COMPOUND SMILES>
Cc1ccc(-c2cc(C(=O)Nc3cc(C(F)(F)F)ccc3Cl)c3ccccc3n2)cc1

>  <TARGET ENTITY>
UniProt:Q8N6T7

>  <Activity / %>
109

$$$$
>  <COMPOUND SMILES>
COc1ccc(-c2cc(C(=O)Nc3cc(C)ccc3C)c3ccccc3n2)cc1OC

>  <TARGET ENTITY>
UniProt:Q8N6T7

>  <Activity / %>
313

$$$$
>  <COMPOUND SMILES>
Cc1c(Cl)cccc1NC(=O)c1cc(-c2cc3ccccc3o2)nc2ccccc12

>  <TARGET ENTITY>
UniProt:Q8N6T7

>  <Activity / %>
205

$$$$

1. COc1ccc(-c2cc(C(=O)Nc3cc(C(F)(F)F)cc(C(F)(F)F)c3)c3ccccc3n2)cc1OC
2. COC(=O)[C@H]1C2CCC(CC2)[C@@H]1NC(=O)c1cc(-c2ccc(OC)c(OC)c2)nc2ccccc12
3. COc1ccc(-c2cc(C(=O)Nc3cc(O)c(C(C)(C)C)cc3C(C)(C)C)c3ccccc3n2)cc1OC
Arrange the 3 entries by Activity so the values rise. Please list the labels according to the requested order.
3, 2, 1
(3: 88.6%, 2: 128%, 1: 250%)

1. COc1ccc(-c2cc(C(=O)Nc3ccc(Cl)cc3)c3ccccc3n2)cc1OC
2. COc1ccc(-c2cc(C(=O)Nc3cc(C(F)(F)F)ccc3Cl)c3ccccc3n2)cc1
For 1 and 2 , which recorded Activity is lower? // return label of chosen record
1

Measured values drawn from ChEMBL document CHEMBL4622973 for this set.
